Attribute: EC50
measurement target: T1, mouse thyroid-stimulating hormone receptor (TSHR) (mouse, UniProt P47750 22-764)
T1 construct: whole, on cells; Overexpressed on 293 cells; also called mouse TSHR; murine TSHR
T1 sequence (P47750 22-764): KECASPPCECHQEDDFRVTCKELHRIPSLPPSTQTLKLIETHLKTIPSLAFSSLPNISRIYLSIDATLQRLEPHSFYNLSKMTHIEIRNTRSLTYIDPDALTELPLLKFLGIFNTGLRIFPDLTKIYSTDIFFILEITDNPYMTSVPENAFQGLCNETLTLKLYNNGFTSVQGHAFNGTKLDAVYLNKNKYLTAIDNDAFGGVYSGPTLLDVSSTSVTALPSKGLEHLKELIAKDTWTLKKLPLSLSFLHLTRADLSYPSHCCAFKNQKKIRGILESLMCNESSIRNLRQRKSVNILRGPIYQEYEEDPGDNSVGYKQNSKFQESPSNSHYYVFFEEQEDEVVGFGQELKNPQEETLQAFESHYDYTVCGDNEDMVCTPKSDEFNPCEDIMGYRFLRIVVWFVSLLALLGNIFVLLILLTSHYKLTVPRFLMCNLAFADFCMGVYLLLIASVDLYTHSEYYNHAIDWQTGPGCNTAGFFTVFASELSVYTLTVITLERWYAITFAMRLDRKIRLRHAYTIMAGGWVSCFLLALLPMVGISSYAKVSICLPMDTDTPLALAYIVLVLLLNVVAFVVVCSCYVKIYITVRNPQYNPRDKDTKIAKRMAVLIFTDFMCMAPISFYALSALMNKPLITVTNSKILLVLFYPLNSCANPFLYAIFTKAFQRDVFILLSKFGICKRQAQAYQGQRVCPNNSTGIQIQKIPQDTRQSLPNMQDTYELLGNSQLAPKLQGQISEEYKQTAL
test method notes: flow cytometry (FACS), 293 cells overexpressing mouse TSHR
Field format: number, assumed nM, no unit text.

Known EC50 results, listed for orientation:
humanized antibody cAb21-VH2-VL2 (antibody, human IgG4 S228P, kappa, V domains shown, Humanized from mAb021) VH: QVQLVQSGAEVKKPGASVKVSCKASGYTFSNYWMQWVRQAPGQGLEWIGEIDPADSYTAYSQKFKGRATMTVDTSTSTVYMELSSLRSEDTAVYYCARRNLLRSGDYWGQGTLVTVSS VL: AIQLTQSPSSLSASVGDRVTITCSASSGITYIHWYQQKPGKAPKRWIYDSSKLASGVPSRFSGSGSGTDYTLTISSLQPEDFATYYCQQWSGNPPTFGQGTKLEIKR    11.9
humanized antibody cAb12-VH1-QG&S-VL3 (antibody, human IgG4 S228P, kappa, V domains shown, Humanized from mAb012) VH: QVQLVQSGAEVKKPGASVKVSCKASGYTFTDYYMNWVRQAPGQGLEWMGVINPYQGESSNNQKFKGRVTMTRDTSTSTVYMELSSLRSEDTAVYYCARSYGYGYYFDYWGQGTTVTVSS VL: AIQLTQSPSSLSASVGDRVTITCSATSSVTYMHWYQQKPGKAPKRWIYDTSKLTSGVPPRFSGSGSGTDYTLTISSLQPEDFATYYCQQWSTYPYTFGGGTKLEIKR    14

# EC50 (binder: humanized antibody cAb21-VH1-VL3 (antibody, human IgG4 S228P, kappa, V domains shown, Humanized from mAb021) VH: QVQLVQSGAEVKKPGASVKVSCKASGYTFSNYWMQWVRQAPGQGLEWMGEIDPADSYTAYSQKFKGRVTMTRDTSTSTVYMELSSLRSEDTAVYYCARRNLLRSGDYWGQGTLVTVSS VL: AIQLTQSPSSLSASVGDRVTITCSASSGITYIHWYQQKPGKAPKRWIYDSSKLASGVPARFSGSGSGTDYTLTISSLQPEDFATYYCQQWSGNPPTFGQGTKLEIKR ) is 10.4

# EC50 (binder: humanized antibody cAb12-VH3-QG&S-VL3 (antibody, human IgG4 S228P, kappa, V domains shown, Humanized from mAb012) VH: QVQLVQSGAEVKKPGASVKVSCKASGYTFTDYYMNWVKQAPGQGLEWIGVINPYQGESSNNQKFKGRATMTVDKSTSTVYMELSSLRSEDTAVYYCARSYGYGYYFDYWGQGTTVTVSS VL: AIQLTQSPSSLSASVGDRVTITCSATSSVTYMHWYQQKPGKAPKRWIYDTSKLTSGVPPRFSGSGSGTDYTLTISSLQPEDFATYYCQQWSTYPYTFGGGTKLEIKR ) is 15
